solvation free energy, 298 K reference
assayMethodText: solvent given as SMILES
measurementParameters: in CN1CCCC1=O
measurementLabel: solvation free energy, 298 K (kcal/mol)

> print(dat)
                smilestext  observedresult
 1                     C=C            -0.4
 2             CCCC(=O)OCC            -4.9
 3                COC(C)=O           -3.72
 4                   ClCCl           -4.23
 5                   O=S=O           -3.11
 6                  CCCC=O           -4.16
 7                   COC=O           -3.71
 8          CC(C)CC(C)(C)C           -3.12
 9  O=C(O)c1cccc(C(=O)O)c1           -15.5
10              CC(C)(C)Cl           -2.97
11                CC(C)C=O           -3.79
12                    CCCO           -5.69
13                C=CCCCCC           -3.46
14                  C=CCCC           -2.25
15                c1ccccc1           -4.43
16               Cc1ccccc1           -4.95
17            C=C(C)C(=C)C           -3.55
18                C1CCCCC1           -3.18
19           ClC(Cl)(Cl)Cl           -4.16
20                 C1CCCC1            -2.7
21                 CCC(C)C            -1.8
22                       S            -2.2
23                 CC(C)CO           -6.03
24                CCCC(C)C           -2.55
25                C=CCCC=C           -3.23
26   c1ccc2c(c1)sc1ccccc12           -11.6
27               FC(F)=CCl           -2.26
28                   O=C=O           -0.82
29                    C#CC           -2.47
30  O=C(O)c1ccc(C(=O)O)cc1           -16.2
31             CC(C)CC(C)C           -2.82
32               CCC(=O)CC           -4.76
33              C1=CCCCCC1           -4.22
34               C1=CCCCC1            -3.7
35                     CCF           -1.86
36                 c1ccsc1           -4.68
37           CC(C)C(C)(C)C           -2.78
38               C1CCCCCC1           -3.99
